Listing: Ratio pKi of selected compounds
Test: Selectivity ratio of pKi for human cloned CB2 receptor to pKi for CB1 receptor in rat brain
Assay type: tissue-based
Reported Property: Ratio pKi

> print(dat)
                             chemical.smiles  reported.property  result
 1  CCCCCn1c(C)c(C(=O)c2cccc3ccccc23)c2ccccc21          Ratio pKi    1.06
 2  CCCCCn1c(C)c(C(=O)c2cccc3ccc(OC)cc23)c2ccccc21          Ratio pKi    1.09
 3  CCCCCn1cc(C(=O)c2cccc3cc(OC)ccc23)c2ccccc21          Ratio pKi    1.19
 4  CCCn1c(C)c(C(=O)c2ccc(C)c3ccccc23)c2ccccc21          Ratio pKi    1.14
 5  CCCCCn1cc(C(=O)c2ccc(OC)c3ccccc23)c2ccccc21          Ratio pKi   0.886
 6     CCCCCn1cc(C(=O)Cc2ccc(F)cc2)c2ccccc21          Ratio pKi    1.01
 7  CCCCCn1cc(C(=O)c2ccc(OCC)c3ccccc23)c2ccccc21          Ratio pKi   0.957
 8  CCCCc1ccc(C(=O)c2cn(CCC)c3ccccc23)c2ccccc12          Ratio pKi    1.13
 9   CCCCCn1c(C)c(C(=O)Cc2ccccc2Cl)c2ccccc21          Ratio pKi   0.963
10     CCCCCn1c(C)c(C(=O)Cc2ccccc2)c2ccccc21          Ratio pKi   0.976
11  CCCCCn1cc(C(=O)c2cccc3ccc(CC)cc23)c2ccccc21          Ratio pKi    1.04
12  CCCCCn1c(C)c(C(=O)c2ccc(CCC)c3ccccc23)c2ccccc21          Ratio pKi    1.04
13    CCCCCn1cc(C(=O)Cc2cccc(Cl)c2)c2ccccc21          Ratio pKi   0.939
14   CCCCCn1c(C)c(C(=O)Cc2ccccc2OC)c2ccccc21          Ratio pKi   0.932
15  CCCCCn1c(C)c(C(=O)Cc2cccc(Cl)c2)c2ccccc21          Ratio pKi   0.989
16  CCCCCn1c(C)c(C(=O)c2ccc(OC)c3ccccc23)c2ccccc21          Ratio pKi    1.04
17  CCCCCn1c(C)c(C(=O)Cc2cccc(OC)c2)c2ccccc21          Ratio pKi   0.981
18       CCCCCn1cc(C(=O)Cc2ccccc2F)c2ccccc21          Ratio pKi   0.969
19      CCCCCn1cc(C(=O)Cc2ccccc2Br)c2ccccc21          Ratio pKi   0.953
20    CCCCCn1cc(C(=O)Cc2cccc(OC)c2)c2ccccc21          Ratio pKi   0.907
21   CCCCCn1c(C)c(C(=O)Cc2ccccc2Br)c2ccccc21          Ratio pKi   0.963
22  CCCn1cc(C(=O)c2cccc3cc(OC)ccc23)c2ccccc21          Ratio pKi    1.22
23  CCCCCn1cc(C(=O)c2ccc(CCC)c3ccccc23)c2ccccc21          Ratio pKi   0.975

###

Test: Selectivity ratio of pKi for human cloned CB2 receptor to pKi for CB1 receptor in rat brain
Type: tissue-based
Listing: Ratio pKi of selected compounds
Reported Property: Ratio pKi

> print(dat)
                            chemical.smiles  result
1  CCCCCn1cc(C(=O)c2c(OC)ccc3ccccc23)c2ccccc21    1.27
2     CCCCCn1cc(C(=O)Cc2cccc(F)c2)c2ccccc21   0.985
3  CCCn1c(C)c(C(=O)c2cccc3ccc(OC)cc23)c2ccccc21    1.09
4  CCCCCn1c(C)c(C(=O)c2ccc(C)c3ccccc23)c2ccccc21     1.1
5       CCCCCn1cc(C(=O)Cc2ccccc2C)c2ccccc21   0.906
6  CCCCCn1c(C)c(C(=O)Cc2ccc(C)cc2)c2ccccc21   0.957

###

Test: Selectivity ratio of pKi for CB1 receptor in rat brain to pKi for human cloned CB2 receptor
Format: tissue-based
Reported Property: Ratio pKi

> print(dat)
                             chemical.smiles  result
 1       CCCCCn1cc(C(=O)Cc2ccccc2C)c2ccccc21     1.1
 2  CCCCCn1c(C)c(C(=O)c2ccc(CC)c3ccccc23)c2ccccc21   0.941
 3    CCCCCn1c(C)c(C(=O)Cc2ccccc2C)c2ccccc21   0.989
 4    CCCCCn1c(C)c(C(=O)Cc2ccccc2F)c2ccccc21    1.04
 5      CCCCCn1cc(C(=O)Cc2ccccc2Br)c2ccccc21    1.05
 6  CCCn1cc(C(=O)c2cccc3ccc(C)cc23)c2ccccc21   0.956
 7  CCCCCn1c(C)c(C(=O)c2cccc3cc(OC)ccc23)c2ccccc21    0.83
 8  CCCCCn1cc(C(=O)c2ccc(C)c3ccccc23)c2ccccc21    1.03
 9  CCCCCn1c(C)c(C(=O)Cc2cccc(OC)c2)c2ccccc21    1.02
10  CCCCCn1c(C)c(C(=O)c2ccc(CCC)c3ccccc23)c2ccccc21   0.965
11  CCCc1ccc(C(=O)c2c(C)n(CCC)c3ccccc23)c2ccccc12   0.919
12  CCCn1c(C)c(C(=O)c2ccc(OCC)c3ccccc23)c2ccccc21   0.919
13  CCCn1cc(C(=O)c2ccc(OCC)c3ccccc23)c2ccccc21   0.934
14  CCCCCn1cc(C(=O)c2ccc(CC)c3ccccc23)c2ccccc21    1.02
15      CCCCCn1cc(C(=O)Cc2ccccc2Cl)c2ccccc21   0.993
16  CCCn1cc(C(=O)c2ccc(C)c3ccccc23)c2ccccc21   0.728
17     CCCCCn1cc(C(=O)Cc2cccc(F)c2)c2ccccc21    1.01
18  CCCn1cc(C(=O)c2ccc(CC)c3ccccc23)c2ccccc21   0.935
19  CCCCCn1cc(C(=O)c2cccc3ccc(OC)cc23)c2ccccc21       1
20  CCCn1cc(C(=O)c2cccc3ccc(CC)cc23)c2ccccc21   0.936
21  CCCCCn1cc(C(=O)c2cccc3cc(OC)ccc23)c2ccccc21   0.843
22  CCCn1cc(C(=O)c2ccc(OC)c3ccccc23)c2ccccc21   0.961
23   CCCCCn1c(C)c(C(=O)Cc2ccccc2Br)c2ccccc21    1.04

###

Listing: pKi of selected molecules
Target: Cannabinoid receptor 2 (Homo sapiens)
Sequence (P34972 whole entry): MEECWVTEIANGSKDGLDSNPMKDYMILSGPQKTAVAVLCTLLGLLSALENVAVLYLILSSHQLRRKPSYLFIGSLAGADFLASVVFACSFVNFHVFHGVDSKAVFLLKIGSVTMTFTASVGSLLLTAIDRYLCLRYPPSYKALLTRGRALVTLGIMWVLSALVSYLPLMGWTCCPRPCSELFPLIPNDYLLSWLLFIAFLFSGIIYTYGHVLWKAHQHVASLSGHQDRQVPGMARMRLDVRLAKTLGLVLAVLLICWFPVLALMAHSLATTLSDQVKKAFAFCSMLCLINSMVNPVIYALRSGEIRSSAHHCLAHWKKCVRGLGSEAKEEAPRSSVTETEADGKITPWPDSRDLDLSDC
Test: Displacement of [3H]CP-55940 from human cloned CB2 receptor by filtration assay
pKi: −log10 of the molar value.
Reported Property: pKi

> print(dat)
                            chemical.smiles  result
1  CCCn1c(C)c(C(=O)c2cccc3ccc(C)cc23)c2ccccc21    7.80
2  CCCn1c(C)c(C(=O)c2ccc(OC)c3ccccc23)c2ccccc21    7.01
3  CCCCCn1c(C)c(C(=O)c2cccc3ccc(C)cc23)c2ccccc21    9.31
4  CCCn1cc(C(=O)c2ccc(OC)c3ccccc23)c2ccccc21    7.50
5  CCCCCn1c(C)c(C(=O)c2cccc3ccccc23)c2ccccc21    8.54
6   CCCCCn1cc(C(=O)c2cccc3ccccc23)c2ccccc21    8.54
7  CCCCCn1cc(C(=O)c2ccc(OC)c3ccccc23)c2ccccc21    7.91
8  CCCCCn1c(C)c(C(=O)c2ccc(OC)c3ccccc23)c2ccccc21    8.72
9     CCCn1cc(C(=O)c2cccc3ccccc23)c2ccccc21    6.77

###

Test: Selectivity ratio of pKi for human cloned CB2 receptor to pKi for CB1 receptor in rat brain
Type: tissue-based
Decide by Ratio pKi: equal to or exceeding 1 means Fulfilled, less means Not fulfilled.

> print(dat)
                            chemical.smiles  assigned.category
1    CCCCCn1cc(C(=O)Cc2ccc(OC)cc2)c2ccccc21          Fulfilled
2  CCCn1cc(C(=O)c2cccc3ccc(CC)cc23)c2ccccc21          Fulfilled
3  CCCn1cc(C(=O)c2cccc3ccc(OC)cc23)c2ccccc21          Fulfilled
4        CCCCCn1cc(C(=O)Cc2ccccc2)c2ccccc21      Not fulfilled
5     CCCCCn1cc(C(=O)Cc2ccc(C)cc2)c2ccccc21      Not fulfilled

###

Test: Selectivity ratio of pKi for human cloned CB2 receptor to pKi for CB1 receptor in rat brain
Assay type: tissue-based
Reported Property: Ratio pKi

> print(dat)
                             chemical.smiles  result
 1  CCCn1cc(C(=O)c2ccc(C)c3ccccc23)c2ccccc21    1.37
 2  CCCn1c(C)c(C(=O)c2ccc(CC)c3ccccc23)c2ccccc21    1.11
 3  CCCCCn1c(C)c(C(=O)Cc2ccc(Cl)cc2)c2ccccc21   0.936
 4     CCCn1cc(C(=O)c2cccc3ccccc23)c2ccccc21    1.13
 5  CCCc1ccc(C(=O)c2cn(CCC)c3ccccc23)c2ccccc12    1.06
 6  CCCn1cc(C(=O)c2ccc(OC)c3ccccc23)c2ccccc21    1.04
 7  CCCCCn1cc(C(=O)c2ccc(C)c3ccccc23)c2ccccc21   0.973
 8  CCCCCn1c(C)c(C(=O)c2cccc3ccc(CC)cc23)c2ccccc21    1.09
 9  CCCCCn1c(C)c(C(=O)c2ccc(CC)c3ccccc23)c2ccccc21    1.06
10  CCCn1cc(C(=O)c2ccc(CC)c3ccccc23)c2ccccc21    1.07
11  CCCCCn1c(C)c(C(=O)c2cccc3cc(OC)ccc23)c2ccccc21    1.21
